- Tested on: MS2 coat protein
- procedure.text: apparent Kd, MS2 coat protein; higher = weaker binding; RNA-MaP array
- cond: designed as: ON switch for tryptophan; no ligand
readout: apparent Kd (nM)
Answer with a number only, understood to be in nM.

Sample `GACGGCUCGACGGCCGCCACUCCCUCCGACUGAAGGCACAGUGGACAUGAGGAUCACCCAUGUCCGAGGACCGGGUCGAUCCUGG` ; apparent Kd observed: 17.7

Sample `CUUCAGGGUGCGGCCGCCACUUAUUAGGUGCUUGCGACGCCAGCACAUGAGGAUCACCCAUGUUCAAGGACCGGGCACCACCUUU` ; apparent Kd observed: 11.5

Sample `GCUGCACAUUCGGCCGCCACUGCUGUUACAGGAAGCUAUAGCUCACAUGAGGAUCACCCAUGUCCCAGGACCGGGAAAGUAUGGA` ; apparent Kd observed: 72.9
